Ref: patent US7192975B2

The following compounds are shown together with reported melting point values.

COMPOUND: CC(C)Cc1ccc(Cc2nc(-c3cccc(N=C(N)c4cccs4)c3)c[nH]2)cc1.Cl
melting point: 214 to 216 °C

Consider now this further compound.
Query :: Field request: melting point | item: `Cl.NC(=Nc1ccc(-c2c[nH]c(CNCC(c3ccccc3)c3ccccc3)n2)cc1)c1cccs1`
Result :: > 250 °C

====

The following molecules are shown together with reported melting point values.

Query :: Field request: melting point | item: Cl.NC(=Nc1ccc(-c2c[nH]c(CCNC3CCCCC3)n2)cc1)c1cccs1 [Example 5]
Result :: 185 to 186 °C

Query :: Similarly, Cl.NC(=Nc1ccc(-c2c[nH]c(C/N=C(/N)c3cccs3)n2)cc1)c1cccs1 [Example 12] ?
Result :: 227 to 228 °C

Query :: Similarly, CCCCCC(CCCCC)c1nc(-c2cccc(N=C(N)c3cccs3)c2)c[nH]1.Cl [Example 14] ?
Result :: 163.3 °C
